- System: ADP-induced human platelet aggregation
- assayRemarks: PRP assay: inhibition of ADP-mediated platelet aggregation in vitro
- Format: cell-based
- experimentalConditions: IC50 class
- Description: I. Inhibition of ADP-Mediated Platelet Aggregation in vitro The effect of testing the compound according to the invention on ADP-induced human platelet aggregation is preferably assessed in 96-well microtiter assay (see generally the procedures in Jantzen, H. M. et al. (1999) Thromb. Hemost. 81:111–117). […]
pIC50: −log10 of the molar value.
Exercise: for every item that follows, state its recorded pIC50.

response.value for `CNc1cc2c(cc1F)C(=O)N(c1ccc(C(=O)NS(=O)(=O)c3ccc(Cl)s3)c(F)c1)CO2` (field: pIC50) = < 4.52

According to the records, this molecule `CNc1cc2c(cc1F)C(=O)N(c1ccc(NC(=O)NS(=O)(=O)c3ccc(Cl)s3)c(C)c1)CO2` displays pIC50 of 4.52 to 5.00

Memo: `CNc1cc2c(cc1F)C(=O)N(c1ccc(NC(=O)NS(=O)(=O)c3ccc(OC)s3)nc1)CO2` , reported pIC50: < 4.52

molecule `CNc1cc2c(cc1F)C(=O)N(c1ccc(NC(=O)NS(=O)(=O)c3ccc(Cl)s3)nc1)CO2` , pIC50 observed: > 5.00

// recorded pIC50 for `CNc1cc2c(cc1F)C(=O)N(c1ccc(NC(=O)NS(=O)(=O)c3ccc(OC)s3)cc1)CO2` : < 4.52

The molecule listed as `CNc1cc2c(cc1F)C(=O)N(c1ccc(NC(=O)NS(=O)(=O)c3ccc(Cl)s3)cc1OC)CO2` shows pIC50 equal to > 5.00

Sample `CNc1cc2c(cc1F)C(=O)N(c1ccc(NC(=O)NS(=O)(=O)c3ccc(Cl)s3)c(OCCN(C)C)c1)CO2` ; pIC50 observed: 4.52 to 5.00

Every entry's value here was drawn from patent US7205296B2.
